Ref: PubChem BioAssay AID743417

# System: Clone20 osteoblast Shn3 3'UTR firefly luciferase, 24 h
# protocol.notes: Shn3 3'UTR reporter inhibitors, dose response, cell-based, Clone20 osteoblasts, luminescence, dry powder, set 2 (AID 743417)
Records with an inconclusive call do not appear. The source made the active and inactive calls.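 The calls were made as follows: active = compounds lowering the luciferase signal with a fitted half-maximal dose at most twice their top valid dose (cut at about 30 µM in these data); inconclusive = flat fits with moderate signal loss, or poor fits; inactive = the rest.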
Exercise: for every item that follows, state its recorded AC50.

What measured AC50 goes with Cc1ccc(S(=O)(=O)N2C[C@@H]3CCCC[C@@H]3[C@@H](C)[C@H]2c2cn(Cc3ccccc3)c3ncccc23)cc1 ?
1.92 µM

Same thing, different compound: S=C(Nc1ccccc1)Nc1ccc(OCc2ccc(Cl)cc2Cl)cc1
0.405 µM

Same thing, different compound: CC(C)C(=O)N1CCN(c2ccc(NC(=O)c3ccc([N+](=O)[O-])o3)cc2Cl)CC1
0.954 µM

Same thing, different compound: COc1cccc(CN(C)C(=O)c2cc(COc3ccc4ncccc4c3)on2)c1
1.49 µM

Same thing, different compound: COc1ccc(CNC(=O)C(C)n2ccc3cc(S(=O)(=O)N4CCCCCC4)ccc32)cc1 (configuration not stated)
0.518 µM

Same thing, different compound: CCOC(=O)c1c(C)[nH]c(C)c1C(=O)CSc1nc2ccccc2c(=O)n1-c1ccc(CC)cc1
5.36 µM

Same thing, different compound: Cc1cc(C(=O)COC(=O)c2ccccc2O)c(C)n1Cc1cccs1
8.99 µM

Same thing, different compound: C=CCn1nc([N+](=O)[O-])nc1Sc1cccc2cccnc12
10.7 µM

Same thing, different compound: Cc1ccc(S(=O)(=O)N2CCN(c3ncnc4sccc34)CC2)cc1
2.72 µM

Same thing, different compound: O=C1NCCOC(=O)[C@@H](Cc2ccc(F)cc2)CC/C=C/C[C@@H]1CC(=O)N(CCO)Cc1ccccc1
> 70 µM (inactive)

Same thing, different compound: COc1ccc(NS(=O)(=O)c2ccc(NC(=O)C(CCSC)NC(N)=O)cc2)cc1 (configuration not stated)
> 70 µM (inactive)

Same thing, different compound: O=C(NC1CCCCCCC1)c1cc(COc2ccc3ncccc3c2)on1
1.06 µM
